system: Plasmodium berghei; assay: Screen against P. berghei liver stage (PbLuc), transformed with Luciferase, at 10uM; format: functional, HepG2; conditions: tested at 10 uM
Out of some 69,000 compounds screened, about 8,600 (12%) showed an effect of 50% or more. For the sample, strong results were picked, then their nearest neighbours and some compounds at random.
Listing of entries alongside the reported INHIBITION.
Dear colleague, please send the value followed by its unit.

Answered examples (5):
compound	INHIBITION
Cn1cccc1C(=O)NCc1cn2c(n1)CN(Cc1cccnc1)CC2	15.8%
CCc1nc2c(NCC3COc4ccccc4C3)ncnc2o1 (centres undefined)	91.5%
O=C(NCc1cn2c(n1)CN(CC1CCOCC1)CC2)C1CCC1	60.2%
COc1cccc2c1OCC(CNc1ccc(C)nn1)C2 (centres undefined)	42.7%
CN1CCN(S(=O)(=O)NCC2COc3ccccc3C2)CC1 (centres undefined)	-22.1%

Any idea what INHIBITION was measured for O=C(c1cncc(NCC2COc3ccccc3C2)n1)N1CCCC1 (centres undefined) ?
33.7%

Any idea what INHIBITION was measured for CN(Cc1ccccc1)CC(O)Cn1cnc2ccc(Br)cc2c1=O (centres undefined) ?
14.92%

Any idea what INHIBITION was measured for OCc1ccc(Cl)c(NCc2cccnc2)c1 ?
3.16%

Any idea what INHIBITION was measured for O=C1NCC2(CCCN(C(=O)c3ccc4c(c3)OCCO4)CC2)O1 (centres undefined) ?
42.6%

Any idea what INHIBITION was measured for Cn1cc(C(=O)NCc2cn3c(n2)CN(C2CCOCC2)CC3)cn1 ?
54.7%

Any idea what INHIBITION was measured for CCCc1n[nH]cc1C(=O)NCC1COc2cc(OC)ccc2C1 (centres undefined) ?
-3.83%

Any idea what INHIBITION was measured for c1c(CN2CCCC2)nc2n1CCN(C1CCOCC1)C2 ?
54.4%

Any idea what INHIBITION was measured for Cc1csc(C(=O)N2CCC3(CC(N(C)c4ccncn4)C3)C2)c1 (centres undefined) ?
-10.8%

Any idea what INHIBITION was measured for COc1cccc2c1OCC(CNC(=O)Cc1c(C)nc(N)nc1C)C2 (centres undefined) ?
-13%

Any idea what INHIBITION was measured for CCOCc1nnc(NCc2cccnc2)o1 ?
-0.897%

Any idea what INHIBITION was measured for Cc1cc(NCc2cccnc2)n2nc(C)cc2n1 ?
-10.4%

Any idea what INHIBITION was measured for CCn1cnnc1C1CCN(C(=O)c2cnc3ccccc3n2)CC1 ?
21.3%

Any idea what INHIBITION was measured for Cn1cc(CN2CCn3cc(CNC(=O)c4cccn4C)nc3C2)cn1 ?
62.6%

Any idea what INHIBITION was measured for Cn1cc(C(=O)NCc2cn3c(n2)CN(CC2CCOCC2)CC3)cn1 ?
9.54%

###

tested on: Plasmodium berghei; test: Screen against P. berghei liver stage (PbLuc), transformed with Luciferase, at 10uM; format: functional, HepG2; settings: tested at 10 uM
In all, about 69,000 compounds went through this assay and about 8,600 (12%) showed an effect of 50% or more. Shown is part of a subset that was picked to be rich in strong results.
quantityName: INHIBITION (%)
Give the value, in units of %, as a plain number.

Answered examples (3):
molecule	INHIBITION [%]
NCc1cnn(-c2ccccc2C(=O)N2CCCC(C(N)=O)C2)c1 (configuration not stated)	9.05
CNC(=O)[C@@H]1[C@H]2CNCCN2C[C@H]1c1ccccc1	11.6
COC1COC2(CCN(Cc3cccc(C#N)c3)CC2)C1 (configuration not stated)	-23.8

Any idea what INHIBITION was measured for Cc1c(C(=O)NCC2CCS(=O)(=O)C2)cnn1-c1ccccc1 (configuration not stated) ?
57.8

Any idea what INHIBITION was measured for O=S(=O)(c1ccc(Cl)cc1)N1CCN(CCCn2ccnc2)CC1 ?
76.7

Any idea what INHIBITION was measured for CCN(C)C1COC2(CCN(C(=O)c3ccc(Cl)cc3)CC2)C1 (configuration not stated) ?
70.3

Any idea what INHIBITION was measured for O=C(C1CC1)N1CCN2C[C@@H](CO)[C@H](c3ccccc3)[C@H]2C1 ?
49.5

Any idea what INHIBITION was measured for c1cncc(-c2noc(CN3CCn4c(nnc4C4CC4)C3)n2)c1 ?
15.66

Any idea what INHIBITION was measured for CCc1ncc(C(=O)N2CCC(Nc3ccc(C)nn3)CC2)s1 ?
-58.7

Any idea what INHIBITION was measured for O=C(c1ccsc1)N1CCC(c2nnc(C3CC3)o2)CC1 ?
14.3

Any idea what INHIBITION was measured for O=C(C1CC1)N1CCN2C[C@H](c3ccccc3)[C@@H](CO)[C@H]2C1 ?
51

Any idea what INHIBITION was measured for CCN1Cc2nccn2CC(COCc2csc(C)n2)C1 (configuration not stated) ?
8.66

Any idea what INHIBITION was measured for O=C(COCC(F)(F)C(F)F)N1CCC(c2ncc[nH]2)CC1 ?
40.6

Any idea what INHIBITION was measured for CNc1ncccc1CN1CCCCC1c1ccnc(N)n1 (configuration not stated) ?
32.3

Any idea what INHIBITION was measured for COc1cccc(N2CC3(CCN(C(=O)NC(C)C)C3)CC2=O)c1 (configuration not stated) ?
-11.2

Any idea what INHIBITION was measured for Cc1ccoc1C(=O)N1Cc2c(Cn3ccnc3)nn(C)c2C1 ?
39.2

Any idea what INHIBITION was measured for O=S(=O)(c1ccc(F)cc1)N1CCN(CCCn2ccnc2)CC1 ?
-49.3

Any idea what INHIBITION was measured for CCn1c(C)nnc1SCCNc1cc(N2CCOCC2)ncn1 ?
14

Any idea what INHIBITION was measured for CCOC(=O)[C@@H]1[C@@H](c2ccccc2)CN2CCN(C(=O)N(C)C)C[C@H]12 ?
32.1

Any idea what INHIBITION was measured for Cc1cc2nc(CN(C)c3ccc(Cl)cc3)cc(=O)n2o1 ?
56

Any idea what INHIBITION was measured for CCOc1ccc(Cl)c(C(=O)NC)n1 ?
49
